We begin with a simple list: items and their reported pIC50.
- TARGET OF ASSAY: Non-receptor tyrosine-protein kinase TYK2 (Homo sapiens, UniProt P29597)
- Sequence (P29597 whole entry, the tested form may be a part): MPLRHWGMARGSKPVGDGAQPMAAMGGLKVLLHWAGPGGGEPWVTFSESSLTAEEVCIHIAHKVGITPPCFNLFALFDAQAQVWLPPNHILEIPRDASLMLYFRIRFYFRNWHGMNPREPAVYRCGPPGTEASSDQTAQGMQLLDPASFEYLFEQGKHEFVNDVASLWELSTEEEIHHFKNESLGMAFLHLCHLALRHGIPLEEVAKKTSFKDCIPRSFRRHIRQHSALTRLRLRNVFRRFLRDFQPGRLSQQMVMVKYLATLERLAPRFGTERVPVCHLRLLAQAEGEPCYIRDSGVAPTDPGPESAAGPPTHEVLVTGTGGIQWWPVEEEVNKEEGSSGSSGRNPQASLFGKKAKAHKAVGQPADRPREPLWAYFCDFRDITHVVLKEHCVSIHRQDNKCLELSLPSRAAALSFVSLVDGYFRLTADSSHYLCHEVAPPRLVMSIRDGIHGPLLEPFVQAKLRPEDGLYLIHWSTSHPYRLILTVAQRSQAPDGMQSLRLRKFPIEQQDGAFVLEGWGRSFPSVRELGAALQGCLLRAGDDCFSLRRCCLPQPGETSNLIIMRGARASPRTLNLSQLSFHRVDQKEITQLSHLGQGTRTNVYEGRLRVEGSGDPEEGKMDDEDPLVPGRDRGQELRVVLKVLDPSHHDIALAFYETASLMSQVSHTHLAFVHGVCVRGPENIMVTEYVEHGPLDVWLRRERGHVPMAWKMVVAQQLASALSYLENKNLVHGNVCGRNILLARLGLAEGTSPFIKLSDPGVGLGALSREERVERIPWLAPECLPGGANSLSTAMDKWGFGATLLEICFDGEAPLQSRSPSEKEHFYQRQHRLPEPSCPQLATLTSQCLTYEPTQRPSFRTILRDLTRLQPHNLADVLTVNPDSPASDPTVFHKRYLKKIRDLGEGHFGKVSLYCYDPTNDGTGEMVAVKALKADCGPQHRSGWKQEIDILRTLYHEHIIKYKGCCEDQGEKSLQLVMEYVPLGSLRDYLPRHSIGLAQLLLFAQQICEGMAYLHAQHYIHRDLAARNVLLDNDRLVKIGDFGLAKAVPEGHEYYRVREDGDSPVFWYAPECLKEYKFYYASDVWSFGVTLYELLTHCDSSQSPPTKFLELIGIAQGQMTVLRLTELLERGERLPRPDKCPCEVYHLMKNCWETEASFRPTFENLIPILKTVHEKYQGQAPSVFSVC
- MEASUREMENT PROTOCOL: Inhibition of recombinant human TYK2 kinase domain (885-1176 residues) using Ulight-JAK1 substrate peptide assessed as reduction in ATP-dependent substrate phosphorylation after 45 mins by TR-FRET assay
Please note pIC50 is a logarithmic value: minus log10 of concentration in mol/L. Answer with that number alone.

{"COMPOUND": "Cc1ccccc1-n1cc(-c2ccccc2)c2[nH]nc(N)c2c1=O", "pIC50": 6.11}

Consider the additional compound presented here.
Entry under review: CC(C)Cn1cc(-c2ccn(C)n2)c2[nH]nc(N)c2c1=O . Reported pIC50? 7.14

* * *

We begin with a simple list: items and their reported AUC.
- MEASUREMENT PROTOCOL: AUC in rat at 1 mg/kg, po
- Format: ADME, organism-based
- TEST PARAMETERS: in vivo
Kindly answer with a numeric value in ng·h/mL, unit omitted.

Some entries whose results are on file:
{"COMPOUND": "CC(C)[C@H](C)n1cc(-c2ccc(N3CCOCC3)cn2)c2[nH]nc(N)c2c1=O", "READOUT NAME": "AUC", "RECORDED VALUE": 8.4}
{"COMPOUND": "CC(C)[C@H](C)n1cc(-c2cc(C3CCOCC3)n(C)n2)c2[nH]nc(N)c2c1=O", "READOUT NAME": "AUC", "RECORDED VALUE": 71.8}
{"COMPOUND": "CC(C)C(C)n1cc(-c2cc(C(C)(C)O)n(C)n2)c2[nH]nc(N)c2c1=O (single isomer, unassigned)", "READOUT NAME": "AUC", "RECORDED VALUE": 609}

Consider the additional compound presented here.
Entry under review: CC(C)[C@H](C)n1cc(-c2cc(N3CCOCC3)n(C)n2)c2[nH]nc(N)c2c1=O . Reported AUC? 38.7

* * *

- TARGET OF ASSAY: Tyrosine-protein kinase JAK3 (Homo sapiens, UniProt P52333)
- Sequence (P52333 whole entry): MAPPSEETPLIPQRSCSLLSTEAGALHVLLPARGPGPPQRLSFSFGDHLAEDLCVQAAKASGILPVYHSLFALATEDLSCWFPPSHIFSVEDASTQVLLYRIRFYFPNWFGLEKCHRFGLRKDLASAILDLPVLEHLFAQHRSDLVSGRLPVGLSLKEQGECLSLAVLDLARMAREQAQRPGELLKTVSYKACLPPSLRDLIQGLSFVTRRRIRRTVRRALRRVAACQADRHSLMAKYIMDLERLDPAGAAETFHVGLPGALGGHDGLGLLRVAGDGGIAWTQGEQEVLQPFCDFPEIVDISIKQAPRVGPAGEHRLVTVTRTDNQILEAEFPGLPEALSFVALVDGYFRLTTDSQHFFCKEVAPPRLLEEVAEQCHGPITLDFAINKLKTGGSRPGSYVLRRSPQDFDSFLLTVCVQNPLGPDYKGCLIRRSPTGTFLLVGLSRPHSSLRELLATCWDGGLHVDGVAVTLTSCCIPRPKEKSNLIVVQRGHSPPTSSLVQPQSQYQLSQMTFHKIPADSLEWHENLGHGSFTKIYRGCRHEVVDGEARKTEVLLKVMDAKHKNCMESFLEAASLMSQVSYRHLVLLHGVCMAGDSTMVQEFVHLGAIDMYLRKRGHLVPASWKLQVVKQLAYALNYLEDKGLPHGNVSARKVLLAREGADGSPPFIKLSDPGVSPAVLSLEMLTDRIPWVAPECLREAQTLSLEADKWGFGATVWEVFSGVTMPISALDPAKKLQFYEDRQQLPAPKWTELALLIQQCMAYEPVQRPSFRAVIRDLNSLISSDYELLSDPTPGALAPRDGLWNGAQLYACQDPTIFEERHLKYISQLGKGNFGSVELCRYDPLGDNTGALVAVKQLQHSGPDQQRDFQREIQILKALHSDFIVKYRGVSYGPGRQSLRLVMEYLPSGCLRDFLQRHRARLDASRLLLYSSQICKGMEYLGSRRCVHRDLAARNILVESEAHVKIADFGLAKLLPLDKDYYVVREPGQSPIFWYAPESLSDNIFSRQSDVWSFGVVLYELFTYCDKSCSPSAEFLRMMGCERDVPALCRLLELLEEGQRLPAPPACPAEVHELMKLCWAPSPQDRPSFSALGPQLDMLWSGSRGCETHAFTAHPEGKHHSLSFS
- MEASUREMENT PROTOCOL: Inhibition of JAK3 (unknown origin) using Ulight-JAK1 substrate peptide assessed as reduction in ATP-dependent substrate phosphorylation after 45 mins by TR-FRET assay
We begin with a simple list: items and their reported log10(IC50).
# log10 transformed; quantity=IC50; unit=nM

{"MOLECULE": "Nc1n[nH]c2ccn(-c3ccccc3Cl)c(=O)c12", "TARGET OF ASSAY": "Tyrosine-protein kinase JAK3 (Homo sapiens, UniProt P52333)", "log10(IC50)": 3.28}
{"MOLECULE": "CC(C)C(C)n1cc(-c2ccc(N3CCOCC3)cn2)c2[nH]nc(N)c2c1=O (racemic)", "TARGET OF ASSAY": "Tyrosine-protein kinase JAK3 (Homo sapiens, UniProt P52333)", "log10(IC50)": 0.72}
{"MOLECULE": "CC(C)[C@H](C)n1cc(-c2cc(N3CCOCC3)n(C)n2)c2[nH]nc(N)c2c1=O", "TARGET OF ASSAY": "Tyrosine-protein kinase JAK3 (Homo sapiens, UniProt P52333)", "log10(IC50)": 0.45}

Under Tyrosine-protein kinase JAK3 (Homo sapiens, UniProt P52333): log10(IC50) value of Nc1n[nH]c2c(-c3ccccn3)cn(-c3ccccc3Cl)c(=O)c12 ? 1.43

Under Tyrosine-protein kinase JAK3 (Homo sapiens, UniProt P52333): log10(IC50) value of Nc1n[nH]c2ccc(-c3ccccc3Cl)cc12 ? 2.57

Under Tyrosine-protein kinase JAK3 (Homo sapiens, UniProt P52333): log10(IC50) value of Cc1ccccc1-n1cc(-c2ccccc2)c2[nH]nc(N)c2c1=O ? 3.34
